Reference source: ChEMBL document CHEMBL1201862

The compounds listed here are annotated with their GI50.
system: BT-549; experiment: NCI tumour cell line growth inhibition, 48 h
Calls of active or inactive are those of the source. No stated cut-off is given here; in the data, active = GI50 up to about 1.1 µM and inactive = higher.

{"columns": ["compound", "assay target", "GI50"],
 "data": [
  ["CN1CCN(CCCCNc2cc3c4ccccc4c(NCCCCN4CCN(C)CC4)cc3c3ccccc23)CC1", "BT-549", "5.89 µM (inactive)"],
  ["CC(=O)c1sc2c(c1OC(=O)c1ccco1)c(=O)n(-c1ccccc1)c(=S)n2-c1ccccc1", "BT-549", "18.1 µM (inactive)"],
  ["Cc1cc2[nH]c3c(C#N)c(-c4ccccc4)c(CN4CCOCC4)c(=O)n3c2cc1C", "BT-549", "> 100 µM (inactive)"],
  ["CC(=O)ON(OC(C)=O)c1ccc(C)cc1", "BT-549", "> 100 µM (inactive)"],
  ["COc1cc(C2c3cc4c(cc3OC(O)C2C)OCO4)cc(OC)c1OC (stereo not given)", "BT-549", "1.14 µM (inactive)"],
  ["CCCCOC(=O)C1CC[C@H]2[C@@H]3CCc4cc(OC(=O)c5cccc6c(=O)c7ccccc7[nH]c56)ccc4[C@H]3CC[C@]12C (stereo not given in full)", "BT-549", "8.17 µM (inactive)"],
  ["Cc1cnc2c(c1C)C(=O)c1ccccc1C2=O", "BT-549", "> 100 µM (inactive)"],
  ["COC(=O)C1Cc2c(OC)ccc(OC)c2CC(C(=O)OC)C1=O (stereo not given)", "BT-549", "> 100 µM (inactive)"],
  ["Cc1cc(C)nc(NS(=O)(=O)c2ccc(NC(=O)c3cc([N+](=O)[O-])cc([N+](=O)[O-])c3)cc2)n1", "BT-549", "> 100 µM (inactive)"],
  ["COC(=O)[C@H]1C=C[C@H](OC2OC(COC(C)=O)C(OC(C)=O)C(OC(C)=O)C2OC(C)=O)n2c(=O)n(-c3ccccc3)c(=O)n21 (stereo not given in full)", "BT-549", "3.04 µM (inactive)"],
  ["Cc1cc2nc(-c3cc(C(C)(C)C)c(O)c(C(C)(C)C)c3)[nH]c2cc1C", "BT-549", "> 100 µM (inactive)"],
  ["COC(=O)/C=c1/c2ccccc2n2c1c1ccccc1[n+]2C", "BT-549", "3.3 µM (inactive)"],
  ["CC(C)C(C(=O)O)N1C(=O)c2ccccc2C1=O (stereo not given)", "BT-549", "> 100 µM (inactive)"],
  ["O=C1c2ccccc2C2=Nc3ccncc3CN12", "BT-549", "> 100 µM (inactive)"],
  ["COCC[N+](CCNC(=O)c1cccc2c(N)c3cccc(C)c3nc12)(CCOC)Cc1ccc([N+](=O)[O-])cc1", "BT-549", "21.8 µM (inactive)"],
  ["NCc1ccc(O)c(O)c1", "BT-549", "> 100 µM (inactive)"],
  ["O=C1Nc2c(Cl)cc(Cl)cc2/C1=N/N=C/c1ccco1", "BT-549", "22.2 µM (inactive)"],
  ["COc1ccc(C)cc1Nc1nnc(-c2ccc(N)cc2)s1", "BT-549", "> 100 µM (inactive)"],
  ["O=[N+]([O-])c1ccc(NN/N=N/c2ccc(-c3nc4ccccc4[nH]3)cc2)c([N+](=O)[O-])c1", "BT-549", "48.3 µM (inactive)"],
  ["COc1cccc(/C=C/c2ccnc3ccccc23)c1OC", "BT-549", "> 10 µM (inactive)"]
]}

###

tested on: KM-20L2; assay: NCI tumour cell line growth inhibition, 48 h
Activity calls are given as the source filed them. Cut-off read from the data, not from the text of the source: active = GI50 up to about 1.1 µM and inactive = higher.
Outcome codes: true (active), false (inactive)

{"columns": ["compound", "assay target", "class"],
 "data": [
  ["CC(O)(c1ccc(OCCC[N+](C)(C)C)cc1)C(C)(O)c1ccc(OCCC[N+](C)(C)C)cc1 (stereo unspecified)", "KM-20L2", "false"],
  ["COc1cc2c(c(OC)c1OC)-c1cccc(=O)cc1C(NC(C)=O)CC2 (stereo unspecified)", "KM-20L2", "true"],
  ["COc1cccc2c1C(=O)c1c(O)c3c(c(O)c1C2=O)C[C@@](O)(C(C)=O)C[C@@H]3OC1CC(O)C(O)C(C)O1 (stereo partly specified)", "KM-20L2", "false"],
  ["COc1cc(OC(=O)c2c(O)cc(O)c(O)c2C)cc(C)c1C(=O)Oc1cc(C)c(C(=O)O)c(O)c1", "KM-20L2", "false"],
  ["CC(=O)NNc1nc(C)c(C(=O)/C=C/c2ccccc2Cl)s1", "KM-20L2", "false"],
  ["COc1ccc(OC)c2c1C(=O)C1CC1(Br)C2=O (stereo unspecified)", "KM-20L2", "false"],
  ["COc1cc(C2c3cc4c(cc3[C@@H](N(C)C)[C@H]3COC(=O)C23)OCO4)cc(OC)c1O (stereo partly specified)", "KM-20L2", "false"],
  ["NC(=O)c1ccc([N+](=O)[O-])cc1", "KM-20L2", "false"],
  ["O=C(O)C1CCC(=O)N1C(=O)COc1cc(Cl)c(Cl)cc1Cl (stereo unspecified)", "KM-20L2", "false"],
  ["O=C(/C=C/c1ccccc1F)c1ccc(Cl)c(Cl)c1", "KM-20L2", "false"],
  ["O=C(O)c1cc(=O)c2cc(C(=O)c3cccs3)c(Cl)c(Cl)c2o1", "KM-20L2", "false"],
  ["CCC[C@H]1O[C@@H]2CC(=O)O[C@@H]2C2=C1C(=O)C=CC2=O", "KM-20L2", "false"],
  ["O=C1CCCC2=C(N1)C(=O)C=CC2=O", "KM-20L2", "false"],
  ["c1ccc(C2N=NN(c3ccccc3)C2N2CCCCC2)cc1 (stereo unspecified)", "KM-20L2", "false"],
  ["CC(C)CC(N)C(=O)OCN1C(=O)C2C3C=CC(C2C1=O)C1C2C(=O)N(COC(=O)C(N)CC(C)C)C(=O)C2C31 (stereo unspecified)", "KM-20L2", "false"],
  ["c1cc2[se][se]c3c4cccc5[se][se]c(c(c1)c23)c54", "KM-20L2", "false"],
  ["Nc1nc(N)c(N=O)c(Nc2ccc(I)cc2)n1", "KM-20L2", "false"],
  ["COc1ccccc1NC(=O)C1=C(C)NC(C)=C(C(=O)Nc2ccccc2OC)C1/C=C/c1ccccc1", "KM-20L2", "false"],
  ["COc1ccc(CCc2cc(OC)c(O)c(OC)c2)cc1", "KM-20L2", "false"],
  ["COc1cccc2c1C(=O)c1c(O)c3c(c(O)c1C2=O)C[C@@](O)(C(=O)CO)CC3OC1CC(N(C)CCOCC(OC(C)=O)OC(C)=O)C(O)C(C)O1 (stereo partly specified)", "KM-20L2", "true"],
  ["NC(CCSCC(F)(F)F)C(=O)O (stereo unspecified)", "KM-20L2", "false"]
]}

###

The compounds listed here are annotated with their GI50.
system: HL-60; assay: NCI tumour cell line growth inhibition, 48 h
The source made the active and inactive calls. Cut-off read from the data, not from the text of the source: active = GI50 up to about 1.1 µM and inactive = higher.

{"columns": ["compound", "GI50"],
 "data": [
  ["CCN(CC)CCC(=O)OC1C(C)=CC(C)C(=O)CC(C(C)CC2CCC(O)C(OC)C2)OC(=O)C2CCCCN2C(=O)C(=O)[C@@]2(O)OC(CCC2C)CC(OC)\\C(C)=C/C=C/C=C/C(C)CC(C)C(=O)C1OC (some centres undefined)", "1960 nM (inactive)"],
  ["CCOC(=O)C1=c2[nH]c3cccc4cccc(c43)n2C(=O)CC1c1ccccc1 (centres undefined)", "95500 nM (inactive)"],
  ["CN(C)Cc1cc(C(=O)/C=C/c2c(F)cccc2Cl)cc(CN(C)C)c1O", "3020 nM (inactive)"],
  ["Nc1ccccc1SC(C[N+](=O)[O-])c1ccc2c(c1)OCO2 (centres undefined)", "1900 nM (inactive)"]
]}

###

tested on: OVCAR-8; assay: NCI tumour cell line growth inhibition, 48 h
Active and inactive are the calls of the source. No stated cut-off is given here; in the data, active = GI50 up to about 1.1 µM and inactive = higher.
The molecules listed here are annotated with their GI50.

{"columns": ["molecule", "GI50"],
 "data": [
  ["COc1ccc(/[N+]([O-])=C/c2ccccc2OC(=S)S)cc1", "18.7 µM (inactive)"],
  ["O=c1c2ccccc2nc(-c2ccccc2)n1NC(=S)Nc1ccc(Cl)cc1[N+](=O)[O-]", "> 100 µM (inactive)"],
  ["COc1cccc(/C=C/c2ccnc3ccccc23)c1OC", "> 10 µM (inactive)"],
  ["CC(C)CC(N)C(=O)OCN1C(=O)C2C3C=CC(C2C1=O)C1C2C(=O)N(COC(=O)C(N)CC(C)C)C(=O)C2C31 (centres undefined)", "> 100 µM (inactive)"],
  ["CC1CCCC(C(=O)/C(=C/c2cccc(Cl)c2)C(=O)C(=O)O)C1 (centres undefined)", "20.3 µM (inactive)"],
  ["COc1ccccc1N1C(=O)CS(=O)(=O)C1c1cccc(Oc2ccccc2)c1 (centres undefined)", "16.5 µM (inactive)"],
  ["Cc1csc(-n2nc(C)cc2C)n1", "> 100 µM (inactive)"],
  ["Cc1cccc(C)c1NC(=O)C(C#N)C1=C(Cl)C(=O)c2ccccc2C1=O (centres undefined)", "16.9 µM (inactive)"],
  ["Cn1cnc2[nH]c(=O)[nH]c(=S)c21", "> 100 µM (inactive)"],
  ["O/N=C1/Nc2ccccc2C(=S)N2CSCC12 (centres undefined)", "> 100 µM (inactive)"],
  ["COc1c(C)c(OCC=C(C)C)cc(CO)c1CO", "36 µM (inactive)"],
  ["CC1OC(OC2C(OC(=O)[C@@H]3CC(C)(C)C[C@@H]4C5=CC[C@@H]6[C@@]7(C)C[C@H](O)[C@H](OC8OC(CO)C(O)C(O)C8O)[C@@](C)(CO)C7[C@H](O)C[C@@]6(C)[C@]5(C)C[C@@H](O)[C@H]43)OCC(O)C2O)C(O)C(O)C1O (some centres undefined)", "> 15 µM (inactive)"],
  ["CN(C)c1ccc(/C=C2\\C[C@H]3[C@@H]4CCc5cc(OCCN6CCCC6)ccc5[C@H]4CC[C@]3(C)[C@H]2O)cc1", "6.32 µM (inactive)"],
  ["C=C1CCC2C(C)(CO)C(O)CCC2(C)C1C/C=C1\\C(=O)OCC1O (centres undefined)", "10.1 µM (inactive)"],
  ["COC(=O)[C@H]1C=C[C@H](OC2OC(COC(C)=O)C(OC(C)=O)C(OC(C)=O)C2OC(C)=O)n2c(=O)n(-c3ccccc3)c(=O)n21 (some centres undefined)", "5.78 µM (inactive)"],
  ["O=C(Cc1ccccc1)N/N=C/c1ccccc1O", "8.93 µM (inactive)"],
  ["O=c1c(=O)c2cscc2c1=O", "6.55 µM (inactive)"],
  ["CCOP(=O)(OCC)c1cc(-c2ccccc2)ccc1N", "> 100 µM (inactive)"],
  ["C=CC(=O)N1C/C(=C\\c2ccc(N(C)C)cc2)C(=O)/C(=C/c2ccc(N(C)C)cc2)C1", "> 100 µM (inactive)"],
  ["C=C(C)[C@H]1CC[C@@]23O[C@@H]2[C@@H](C[C@@]2(C)CC(=O)[C@H](CC(=O)C1)O2)OC(=O)[C@@]12CC[C@H](C(=C)C)CC(=O)C[C@H]4O[C@](C)(CC4=O)C[C@@H](OC3=O)[C@@H]1O2 [SINGARDIN]", "> 100 µM (inactive)"],
  ["Cc1cc2nc(-c3cc(C(C)(C)C)c(O)c(C(C)(C)C)c3)[nH]c2cc1C", "12.7 µM (inactive)"],
  ["O=C(CCCN1CC=C(n2c(=O)[nH]c3ccccc32)CC1)c1cccs1", "> 100 µM (inactive)"],
  ["COc1cccc(N2C(=O)[C@H]3CC(C)c4c([nH]c5ccccc45)[C@H]3C2=O)c1 (some centres undefined)", "50 µM (inactive)"],
  ["O=C(c1ccc(Cl)cc1Cl)N(/N=C/C=C/c1ccccc1)c1nnc(-c2ccccc2)c(-c2ccccc2)n1", "> 100 µM (inactive)"],
  ["CCN(CC)C(=S)N/N=C(\\C)c1ccccc1O", "19.5 µM (inactive)"],
  ["COc1cc(C2c3cc4c(cc3[C@@H](N(C)C)[C@H]3COC(=O)C23)OCO4)cc(OC)c1O (some centres undefined)", "25.5 µM (inactive)"],
  ["Nc1ccccc1SC(C[N+](=O)[O-])c1ccc2c(c1)OCO2 (centres undefined)", "2.78 µM (inactive)"],
  ["CC1C2CC(CC23OCC(CCl)O3)C1(C)C (centres undefined)", "> 100 µM (inactive)"],
  ["NC(CCCCN/C=C1/N=C(c2ccccc2)OC1=O)C(=O)O (centres undefined)", "> 100 µM (inactive)"],
  ["CC1(C)S[C@@H]2[C@H](NC(=O)/C=C/c3ccccc3)C(=O)N2[C@H]1C(=O)O", "> 100 µM (inactive)"],
  ["CNC/C(Cl)=N/S(=O)(=O)c1ccc(C)cc1", "18.9 µM (inactive)"],
  ["CC(C)Oc1cccc(N2C(CCc3c[nH]c4ccc(Br)cc34)=NS(=O)(=O)c3cnccc32)c1", "51.2 µM (inactive)"],
  ["NCCCCc1cc(O)c2c(c1O)C(=O)c1ccccc1C2=O", "5.09 µM (inactive)"],
  ["O=C1C=Cc2c(Cl)sc(Cl)c21", "1.6 µM (inactive)"],
  ["COc1ccc(N(C(=O)Nc2ccc(Cl)c(Cl)c2)c2ccccc2)cc1", "> 10 µM (inactive)"],
  ["Oc1cn(-c2ccc(Cl)cc2)nc1-c1nnc(Nc2ccccc2)o1", "20.9 µM (inactive)"],
  ["O=C1CC(=O)NC(NN2C(=O)CSC2c2ccc(Cl)cc2)=N1 (centres undefined)", "91.6 µM (inactive)"],
  ["O=C(c1ccccc1)C1C(c2ccccc2)N1S(=O)(=O)c1ccccc1 (centres undefined)", "> 100 µM (inactive)"],
  ["Cc1cnc2c(c1C)C(=O)c1ccccc1C2=O", "43.2 µM (inactive)"]
]}
